Assay: plasma exposure in SK-MEL-2 xenograft study
Conditions: mouse, oral, 30 mg/kg
quantity name: AUC(0-t)

Supply recorded AUC(0-t) for `Cc1ccc(NC(=O)N2CC[C@@H](CC(F)(F)F)C2)cc1-c1cc(N[C@H](C)CO)nc(N2CCOCC2)c1` here.
29900 to 96100 ng·h/mL

* * *

Assay: plasma exposure in SK-MEL-2 xenograft study
Details: mouse, oral, 3 mg/kg
quantity name: AUC(0-t)

Tell me measured AUC(0-t) for Cn1cnc2c(F)c(Nc3ccc(Br)cc3F)c(C(=O)NOCCO)cc21 [binimetinib, reference compound] please.
7500 to 10100 ng·h/mL

* * *

Assay: plasma exposure in mice bearing BxPC-3 and WM3629 xenografts
Assay type: in vivo
Conditions: athymic nude, mouse, po, dosed orally BID (1.5-10 mg/kg), sulfate salt form, 24-hour period following the last dose, read-out: systemic plasma exposures (AUClast)
quantity name: AUC(0-t)

Return AUC(0-t) for the following compound: `Cc1ccc(NC(=O)N2CC[C@@H](CC(F)(F)F)C2)cc1-c1cc(N[C@H](C)CO)nc(N2CCOCC2)c1`
4030 to 42100 ng·h/mL

* * *

System: pERK in 8505C cells
Test: cells
Details: Homo sapiens
quantity name: pEC50
FYI, pEC50 means -log10 of a concentration in mol per litre.

Return pEC50 for the following molecule: `Cc1ccc(NC(=O)N2CC[C@@H](CC(F)(F)F)C2)cc1-c1cc(N[C@H](C)CO)nc(N2CCOCC2)c1`
7.11

* * *

Listed below: AUC(0-t) values for each entry.
Experiment: plasma exposure in WM3629 BID combination study (Example 6)
Conditions: athymic BALB/c nude, mouse, oral, 3 mg/kg

>  <compound>
Cc1ccc(NC(=O)N2CC[C@@H](CC(F)(F)F)C2)cc1-c1cc(N[C@H](C)CO)nc(N2CCOCC2)c1

>  <quantity name>
AUC(0-t)

>  <meas value>
2530 to 6750 ng·h/mL

$$$$

Here is the next item to consider.
// fetch AUC(0-t) given entry Cn1cnc2c(F)c(Nc3ccc(Br)cc3F)c(C(=O)NOCCO)cc21 [binimetinib, reference compound]
5400 to 5730 ng·h/mL

* * *

Tested on: pERK in COLO 800 cells
Assay: cells
Conditions: Homo sapiens
quantity name: EC50 (nM)
Please reply with the bare figure in nM and do not write the unit itself.

Read the entry `Cc1ccc(NC(=O)N2CC[C@@H](CC(F)(F)F)C2)cc1-c1cc(N[C@H](C)CO)nc(N2CCOCC2)c1` and write its reported EC50.
99.5

* * *

System: SK-MEL-2 human melanoma cells
Assay: 7-day CellTiter-Glo growth assay with binimetinib combination and synergy analysis
Type: cell-based
Details: SK-MEL-2, 168 h, read-out: Compound 1 7-Day CTG EC50, SK-MEL-2, binimetinib 31.3 nM
quantity name: pEC50
Just the number, please; pEC50 means minus log10 of the concentration in mol/L.

Provide only the value of recorded pEC50 for Cc1ccc(NC(=O)N2CC[C@@H](CC(F)(F)F)C2)cc1-c1cc(N[C@H](C)CO)nc(N2CCOCC2)c1 [Compound 1]
7.19

* * *

Tested on: SK-MEL-2 human melanoma cells
Assay: 7-day CellTiter-Glo growth assay with binimetinib combination and synergy analysis
Type: cell-based
Details: SK-MEL-2, 168 h, read-out: Compound 1 7-Day CTG EC50, SK-MEL-2, binimetinib 500 nM
quantity name: EC50 (µM)
Please respond with the number in µM and leave the unit unwritten.

# assay system SK-MEL-2 human melanoma cells: give EC50 of `Cc1ccc(NC(=O)N2CC[C@@H](CC(F)(F)F)C2)cc1-c1cc(N[C@H](C)CO)nc(N2CCOCC2)c1`
0.012

* * *

Test system: SK-MEL-2 human melanoma cells
Assay: 7-day CellTiter-Glo growth assay with binimetinib combination and synergy analysis
Type: cell-based
Details: SK-MEL-2, 168 h, read-out: Compound 1 7-Day CTG EC50, SK-MEL-2, binimetinib 125 nM
quantity name: EC50 (nM)
The response must be a number in nM with no trailing unit.

Read the entry `Cc1ccc(NC(=O)N2CC[C@@H](CC(F)(F)F)C2)cc1-c1cc(N[C@H](C)CO)nc(N2CCOCC2)c1` and write its reported EC50.
39

* * *

Test: plasma exposure in mice bearing A-375 tumors
Type: in vivo
Details: athymic nude, mouse, 15-60 mg/kg PO QD, free base, 24-hour period following the last dose, read-out: systemic plasma exposures (AUClast)
quantity name: AUC(0-t)

Name the recorded AUC(0-t) of the item Cc1ccc(NC(=O)N2CC[C@@H](CC(F)(F)F)C2)cc1-c1cc(N[C@H](C)CO)nc(N2CCOCC2)c1 [Compound 1] in your answer.
11900 to 156000 ng·h/mL

* * *

System: pERK in AM-38 cells
Test: cells
Conditions: Homo sapiens
quantity name: EC50 (nM)
Form entry: value (nM) — number only.

Answer briefly: EC50 recorded on pERK in AM-38 cells for `Cc1ccc(NC(=O)N2CC[C@@H](CC(F)(F)F)C2)cc1-c1cc(N[C@H](C)CO)nc(N2CCOCC2)c1`
41.4

* * *

Test: in vivo
Details: athymic nude, mouse, plasma, oral, 30 mg/kg
quantity name: AUC(0-t)

Item `Cc1ccc(NC(=O)N2CC[C@@H](CC(F)(F)F)C2)cc1-c1cc(N[C@H](C)CO)nc(N2CCOCC2)c1` : provide AUC(0-t)
31100 to 123000 ng·h/mL

* * *

Experiment: in vivo
Conditions: athymic nude, mouse, plasma, oral, 10 mg/kg
quantity name: AUC(0-t)

Provide AUC(0-t) value for the following molecule: Cn1cnc2c(F)c(Nc3ccc(Br)cc3F)c(C(=O)NOCCO)cc21 [binimetinib, reference compound]
11000 to 26700 ng·h/mL

Ref: patent US11918587B2
